tgt: T1, human PILRA R78 on cells (human, UniProt Q9UKJ1 20-303)
T1 construct: also called hPILRA R78; PILRA 78R
method_description: flow cytometry on PILRA R78 expressing HEK293 cells (FIG. 1F); HEK293 cells expressing PILRA R78
measured_quantity: pEC50
// pEC50: -log10(molar conc.)

// Anti-PILRA antibody clone 23 (antibody, V domains shown, Humanized; also called Ab.23) VH: EVQLVQSGAEVKKPGASVKVSCKASGYTFTEYYMYWVRQAPGQGLELIGRIDPEDGGTDYVEKFKNRATLTADTSTSTAYLELSSLRSEDTAVYFCASTIRGTVFVYWGQGTLVTVSS VL: DIQMTQSPSSLSASVGDRVTITCRPSEDIYNGLAWYQQKPGKAPKLLIYNANSLHTGVPSRFSGSGSGTDYTLTISSLQPEDFATYYCQQYYDYPLTFGQGTKVEIK : pEC50 value = 8.43
